Data provenance is paper PMC5540273.

Reported values of %Inh for individual entries
# Tested on: ERBB2
# Assay conditions: concentration: 1 μM, replicates: in singlicate; n = 1
Value expressed in %; do not type the unit.

The following compounds have reported results that may help.
{"Compound": "COc1cc(Nc2ccnc3ccc(C(F)(F)F)cc23)cc(OC)c1OC", "Target or system": "ERBB2", "%Inh, %": 16}
{"Compound": "COc1cc2nccc(Nc3ccc(OCc4ccc(NC(C)=O)cc4)cc3)c2cc1OC.Cl", "Target or system": "ERBB2", "%Inh, %": 31}
{"Compound": "O=C(Nc1ccc2c(c1)OCO2)NC1CCN(c2ccnc(NCc3ccc(F)cc3)n2)CC1", "Target or system": "ERBB2", "%Inh, %": 35}
{"Compound": "Nc1n[nH]c2ncc(-c3ccccc3)cc12", "Target or system": "ERBB2", "%Inh, %": 24}
{"Compound": "Cc1nnc(-c2ccc(C)c(-c3ccc(C(=O)O)cc3)c2)o1", "Target or system": "ERBB2", "%Inh, %": 36}
{"Compound": "CCC(=O)c1c(-c2ccccc2)c2cc(Cl)ccc2c(=O)n1Cc1cc(C(=O)NC2CC2)n(C)n1", "Target or system": "ERBB2", "%Inh, %": 9}
{"Compound": "Cc1ccc(-c2ccc3c(ccc4sc5c(c43)NC[C@@H](C)N=C5N(C)C)n2)cn1", "Target or system": "ERBB2", "%Inh, %": 8}
{"Compound": "CCS(=O)c1ccc(-c2coc3ccc(-c4nnc(C)o4)cc23)cc1 (stereo not shown)", "Target or system": "ERBB2", "%Inh, %": 8}
{"Compound": "Fc1cccc(CSc2nnc(-c3ccc4c(c3)CCO4)o2)c1", "Target or system": "ERBB2", "%Inh, %": 59}
{"Compound": "Cc1cc(Nc2nc(-c3cccc(C)n3)nc3ccccc23)ccn1", "Target or system": "ERBB2", "%Inh, %": 0}

Can you look up the measured %Inh of COc1ccc(-c2cc3c(C)nc(N)nc3n([C@H]3CC[C@H](OCCO)CC3)c2=O)cn1 for me? 13

###

# Test system: NEK5;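 also: kd values determined as follow-up on hits from a single-replicate KINOMEscan panel screen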
Endpoint label: Kd (nM)
Answer format: numeric, nM implied, no suffix.

Form: Entry = COc1cc(Nc2nccc(N3CCC(NC(=O)C(C)c4ccc(Cl)cc4)C3)n2)cc(OC)c1OC (stereo not shown) [GSK1379757] | System = NEK5 | Kd = ____ 740

###

# %Inh listing for each entry below
# System: MYO3B
# Assay conditions: concentration: 1 μM, replicates: in singlicate; n = 1
Note: unit % is implicit; provide only the numeric part.

Solved cases below.
{"Molecule": "COc1cc2ncn(-c3cc(OCCCc4ccccc4)c(C(N)=O)s3)c2cc1OC", "%Inh, %": 0}
{"Molecule": "COc1ccc(Nc2nccc(N3CCC(NS(=O)(=O)c4ccc(NC(C)=O)cc4)C3)n2)cc1 (stereo not drawn)", "%Inh, %": 2}

Continue with the next molecule.
Record lookup: for MYO3B, what %Inh belongs to CN1C(=O)C(Nc2cc(Cl)c(O)c(Cl)c2)=C(c2ccc(Cl)cc2)C1=O ? 8

###

# System: CSF1R-autoinhibited
# Assay conditions: concentration: 1 μM, replicates: in singlicate; n = 1
Endpoint label: %Inh (%)
Express it in %; write the number only.

Recorded results for 10 compounds are shown here.
{"Compound": "Cl.c1ccc(Cn2cnc3cc(Nc4ncnc5ccccc45)ccc32)cc1 [GW272142]", "Endpoint label": "%Inh", "Unit": "%", "Observed measurement": 0}
{"Compound": "Nc1ncnc2c1ncn2-c1cccc2ccccc12 [SKF-97184]", "Endpoint label": "%Inh", "Unit": "%", "Observed measurement": 33}
{"Compound": "COc1cc2ncn(-c3cc(OCc4ccncc4Br)c(C(N)=O)s3)c2cc1OC [GW854278]", "Endpoint label": "%Inh", "Unit": "%", "Observed measurement": 0}
{"Compound": "CN(C)c1cc(-c2ccc3c(N)n[nH]c3c2)nc(N)n1 [GSK2219329]", "Endpoint label": "%Inh", "Unit": "%", "Observed measurement": 0}
{"Compound": "COC(=O)c1c(-c2ccccc2)c2cc(Br)ccc2c(=O)n1Cc1ccc(NC(=O)CCC(=O)O)cc1", "Endpoint label": "%Inh", "Unit": "%", "Observed measurement": 0}
{"Compound": "CC(C)(C)c1ccc(C(=O)Nc2cn3cc(-c4ccccc4)ccc3n2)cc1", "Endpoint label": "%Inh", "Unit": "%", "Observed measurement": 0}
{"Compound": "COc1ccc(-c2cc3c(C)nc(N)nc3n([C@H]3CC[C@H](O)CC3)c2=O)cn1", "Endpoint label": "%Inh", "Unit": "%", "Observed measurement": 6}
{"Compound": "COc1cccc(C2=C(N(C)c3ccccc3)C(=O)NC2=O)c1 [SB-334865]", "Endpoint label": "%Inh", "Unit": "%", "Observed measurement": 0}
{"Compound": "COc1cc(Nc2ccnc3ccc(C(F)(F)F)cc23)cc(OC)c1OC [GW577382]", "Endpoint label": "%Inh", "Unit": "%", "Observed measurement": 14}
{"Compound": "COc1ccc(-n2cnc3c(N)ncnc32)cc1 [SKF-97236]", "Endpoint label": "%Inh", "Unit": "%", "Observed measurement": 0}

Hi! What's the reported %Inh for Cc1nn2c(=O)cc(N3CCOCC3)nc2n1Cc1cccc(Cl)c1Cl [GSK2342769] on CSF1R-autoinhibited? 0

Given the entry Nc1n[nH]c2nnc(-c3ccccc3)c(-c3ccccc3)c12 [GW554060] , what %Inh was observed with CSF1R-autoinhibited? 34

What is its %Inh for CSF1R-autoinhibited? Entry: COc1cc(OC)cc(-c2cc3cnc(N)nc3nc2NC(=O)NC(C)(C)C)c1 0
